Measured ELISA_avg, listed per entry.
Assayed system: T1, AFP p26 (human, UniProt P02771 381-609)
T1 construct: The construct used is not described
T1 sequence: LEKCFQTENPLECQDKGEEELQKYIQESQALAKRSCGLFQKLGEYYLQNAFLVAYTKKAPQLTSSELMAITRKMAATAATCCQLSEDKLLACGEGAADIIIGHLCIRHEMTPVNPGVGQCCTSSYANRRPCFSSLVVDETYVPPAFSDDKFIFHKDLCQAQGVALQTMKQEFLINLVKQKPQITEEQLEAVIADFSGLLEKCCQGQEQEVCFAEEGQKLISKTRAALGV
Assay: phage ELISA, A450 target/A450 IgG1-Fc
Assay readout: ELISA_avg

> print(dat)
                                      binder  assay.readout      result
 1  SEQ ID NO 830 (designed binder) MGSWVLFKQELAWIKWYLEALGGSEAELAAFEWEIAAFEQRLQIYKGKGNPEVEALRKEAAAIRDELQAYRHN      ELISA_avg  22.5 ratio
 2  SEQ ID NO 814 (designed binder) MGSWFEFEDRLFAIWTRLEALGGSEAELAAFEKEIAAFESELQAYKGKGNPEVESLRQSAASIRWLLQAYRHN      ELISA_avg  10.9 ratio
 3  SEQ ID NO 839 (designed binder) MGSWTLFKWDLAFIKWQLEALGGSEAELAWFEYEIAAFEDSLQNYKGKGNPEVEALRKEAAAIRDELQAYRHN      ELISA_avg  12.1 ratio
 4  SEQ ID NO 833 (designed binder) MGSWLLFKSDLAWIKWRLEALGGSEAELAEFEESIAMFEHWLQEYKGKGNPEVEALRKEAAAIRDELQAYRHN      ELISA_avg  33.3 ratio
 5  SEQ ID NO 797 (designed binder) MGSWIEFKYRLDAIEWRLEALGGSEAELAAFEKEIAAFESELQAYKGKGNPEVESLRIHAAAIRTWLQAYRHN      ELISA_avg  18.3 ratio
 6  SEQ ID NO 862 (designed binder) MGSWSIFKQDLADIKDSLEALGGSEAELAMFEMDIAWFEHTLQYYKGKGNPEVEALRKEAAAIRDELQAYRHN      ELISA_avg  16.6 ratio
 7  SEQ ID NO 842 (designed binder) MGSWYIFKSELAWIKWYLEALGGSEAELANFEVEIATFETWLQGYKGKGNPEVEALRKEAAAIRDELQAYRHN      ELISA_avg  29.6 ratio
 8  SEQ ID NO 792 (designed binder) MGSWYEFYKRLEAIDNRLYALGGSEAELAAFEKEIAAFESELQAYKGKGNPEVEYLREHAAAIRHWLQAYRHN      ELISA_avg  30.8 ratio
 9  SEQ ID NO 824 (designed binder) MGSWENFKDTLAWIKEYLEALGGSEAELAGFEHRIAIFEHYLQYYKGKGNPEVEALRKEAAAIRDELQAYRHN      ELISA_avg  19.2 ratio
10  SEQ ID NO 863 (designed binder) MGSWEIFKDDLASIKKVLEALGGSEAELALFESDIAWFELMLQYYKGKGNPEVEALRKEAAAIRDELQAYRHN      ELISA_avg  27.9 ratio
